- system: human mPGES-1 (Homo sapiens, UniProt O14684)
- Sequence (O14684 whole entry): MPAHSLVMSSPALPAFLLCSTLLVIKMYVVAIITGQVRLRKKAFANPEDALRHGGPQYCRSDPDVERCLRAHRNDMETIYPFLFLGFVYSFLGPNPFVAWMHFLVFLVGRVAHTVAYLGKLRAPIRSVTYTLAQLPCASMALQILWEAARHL
# IC50 per entry

*Q* Consider the compound `NS(=O)(=O)c1cc(F)ccc1NS(=O)(=O)c1cccc(F)c1F` tested on human mPGES-1 (Homo sapiens, UniProt O14684); state its IC50.
*A* 3900 nM

*Q* Consider the compound `Cn1c(-c2cccc(S(=O)(=O)Nc3ccccc3S(N)(=O)=O)c2)cc2ccccc21` tested on human mPGES-1 (Homo sapiens, UniProt O14684); state its IC50.
*A* 2900 nM

*Q* Consider the compound `COc1cccc(-c2cccc(S(=O)(=O)Nc3ccccc3S(N)(=O)=O)c2)c1` tested on human mPGES-1 (Homo sapiens, UniProt O14684); state its IC50.
*A* 8300 nM

*Q* Consider the compound `NS(=O)(=O)c1cc(O)ccc1NS(=O)(=O)c1cccc(Cl)c1Cl` tested on human mPGES-1 (Homo sapiens, UniProt O14684); state its IC50.
*A* 1100 nM

*Q* Consider the compound `NS(=O)(=O)c1ccccc1NS(=O)(=O)/C=C/c1ccc(-c2ccco2)cc1` tested on human mPGES-1 (Homo sapiens, UniProt O14684); state its IC50.
*A* 44 nM

*Q* Consider the compound `NS(=O)(=O)c1ccccc1NS(=O)(=O)c1ccc(OCc2cnc(Cl)s2)cc1` tested on human mPGES-1 (Homo sapiens, UniProt O14684); state its IC50.
*A* 460 nM

*Q* Consider the compound `CSc1ccc(/C=C/S(=O)(=O)Nc2cc(F)ccc2S(N)(=O)=O)cc1` tested on human mPGES-1 (Homo sapiens, UniProt O14684); state its IC50.
*A* 160 nM

*Q* Consider the compound `CC(C)Oc1ccccc1/C=C/S(=O)(=O)Nc1ccccc1S(N)(=O)=O` tested on human mPGES-1 (Homo sapiens, UniProt O14684); state its IC50.
*A* 950 nM

*Q* Consider the compound `COc1cc(Cl)ccc1CCS(=O)(=O)Nc1cc(C#N)ccc1S(N)(=O)=O` tested on human mPGES-1 (Homo sapiens, UniProt O14684); state its IC50.
*A* 370 nM

*Q* Consider the compound `COc1ccc(-c2cccc(S(=O)(=O)Nc3ccccc3S(N)(=O)=O)c2)cn1` tested on human mPGES-1 (Homo sapiens, UniProt O14684); state its IC50.
*A* 570 nM

*Q* Consider the compound `CSc1ccccc1/C=C/S(=O)(=O)Nc1ccccc1S(N)(=O)=O` tested on human mPGES-1 (Homo sapiens, UniProt O14684); state its IC50.
*A* 270 nM

*Q* Consider the compound `NS(=O)(=O)c1ccc(F)cc1NS(=O)(=O)CCc1ccc(Cl)cc1` tested on human mPGES-1 (Homo sapiens, UniProt O14684); state its IC50.
*A* 800 nM

*Q* Consider the compound `CC(C)(C)C#Cc1cccc(S(=O)(=O)Nc2ccccc2S(N)(=O)=O)c1` tested on human mPGES-1 (Homo sapiens, UniProt O14684); state its IC50.
*A* 2500 nM

*Q* Consider the compound `NS(=O)(=O)c1ccccc1NS(=O)(=O)CCc1ccc(Br)cc1` tested on human mPGES-1 (Homo sapiens, UniProt O14684); state its IC50.
*A* 140 nM

*Q* Consider the compound `NS(=O)(=O)c1ccccc1NS(=O)(=O)c1ccc(OCc2ccccc2)cc1` tested on human mPGES-1 (Homo sapiens, UniProt O14684); state its IC50.
*A* 5100 nM

*Q* Consider the compound `C=C(CS(=O)(=O)Nc1ccccc1S(N)(=O)=O)c1ccc(Cl)cc1` tested on human mPGES-1 (Homo sapiens, UniProt O14684); state its IC50.
*A* 2400 nM

*Q* Consider the compound `CC(C)(O)C#Cc1ccc(CCS(=O)(=O)Nc2ccccc2S(N)(=O)=O)cc1` tested on human mPGES-1 (Homo sapiens, UniProt O14684); state its IC50.
*A* 9600 nM

*Q* Consider the compound `NS(=O)(=O)c1cc(F)c(F)cc1NS(=O)(=O)c1cccc(Cl)c1Cl` tested on human mPGES-1 (Homo sapiens, UniProt O14684); state its IC50.
*A* 2700 nM
